Reference source: patent US20230135093A1

molecular target: h-GABA-A α5β3γ2 (Homo sapiens, UniProt P18507+P31644); construct: expressed in transfected cells; host or cells: Xenopus laevis oocytes, micro-injected with subunit RNA; experiment: Two-electrode voltage clamp electrophysiology in Xenopus oocytes expressing GABAA receptors (modulation of GABA EC20 current); format: cell-based; conditions: Table 1; Xenopus oocytes, GABA EC20, test compound at approximatively 30 fold its Ki
Sequence (P31644 32-462): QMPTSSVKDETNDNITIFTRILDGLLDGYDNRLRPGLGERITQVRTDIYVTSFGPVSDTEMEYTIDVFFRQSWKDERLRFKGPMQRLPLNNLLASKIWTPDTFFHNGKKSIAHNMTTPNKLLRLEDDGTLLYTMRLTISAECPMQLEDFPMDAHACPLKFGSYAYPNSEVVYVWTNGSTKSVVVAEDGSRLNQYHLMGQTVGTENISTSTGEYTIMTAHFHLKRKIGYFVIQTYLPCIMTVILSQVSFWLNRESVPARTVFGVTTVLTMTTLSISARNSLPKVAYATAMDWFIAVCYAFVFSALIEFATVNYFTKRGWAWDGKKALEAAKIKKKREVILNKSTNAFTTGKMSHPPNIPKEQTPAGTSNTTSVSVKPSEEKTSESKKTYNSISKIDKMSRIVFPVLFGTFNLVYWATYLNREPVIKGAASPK
Sequence (P28472 26-473 partner): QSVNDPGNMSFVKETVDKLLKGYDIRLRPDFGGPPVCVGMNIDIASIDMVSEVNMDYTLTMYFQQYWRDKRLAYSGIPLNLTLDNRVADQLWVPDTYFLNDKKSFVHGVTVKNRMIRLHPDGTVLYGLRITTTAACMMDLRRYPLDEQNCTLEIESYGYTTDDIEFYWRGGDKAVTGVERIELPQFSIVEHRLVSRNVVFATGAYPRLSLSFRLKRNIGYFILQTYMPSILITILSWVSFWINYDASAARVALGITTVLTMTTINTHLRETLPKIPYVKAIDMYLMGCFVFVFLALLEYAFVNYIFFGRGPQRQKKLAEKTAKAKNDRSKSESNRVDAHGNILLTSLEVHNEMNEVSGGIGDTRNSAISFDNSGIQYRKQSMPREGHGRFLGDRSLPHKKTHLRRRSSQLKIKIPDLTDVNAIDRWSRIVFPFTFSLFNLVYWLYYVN
Sequence (P18507 40-475): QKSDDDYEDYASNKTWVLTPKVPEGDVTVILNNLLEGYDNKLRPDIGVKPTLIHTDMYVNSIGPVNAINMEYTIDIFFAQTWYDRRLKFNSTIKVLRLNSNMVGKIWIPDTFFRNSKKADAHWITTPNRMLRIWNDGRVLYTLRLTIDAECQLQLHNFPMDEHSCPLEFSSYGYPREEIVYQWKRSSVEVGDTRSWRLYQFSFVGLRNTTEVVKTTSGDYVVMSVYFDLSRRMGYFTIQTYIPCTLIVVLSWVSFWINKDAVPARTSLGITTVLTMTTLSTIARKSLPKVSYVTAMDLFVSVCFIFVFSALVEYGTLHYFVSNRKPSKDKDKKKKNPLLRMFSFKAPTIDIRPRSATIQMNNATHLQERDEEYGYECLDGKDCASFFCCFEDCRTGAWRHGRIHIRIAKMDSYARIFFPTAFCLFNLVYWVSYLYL
MEASURE_NAME: Fold increase h-GABA-A α5β3γ2 oocyte

Entry C[C@@H]1CN(c2cnn(Cc3c(-c4ccc(Cl)cc4F)nnn3C)c(=O)c2)C[C@H](C)O1 — recorded Fold increase h-GABA-A α5β3γ2 oocyte = 2.24

The compound listed as Cn1nnc(-c2ccc(Cl)cc2F)c1Cn1ncc(N2CC(Oc3cnccn3)C2)cc1=O shows Fold increase h-GABA-A α5β3γ2 oocyte equal to 1.9

According to the records, this compound Cn1nnc(-c2ccc(Cl)cc2F)c1Cn1ncc(-c2cnn(C3CC3)c2)cc1=O displays Fold increase h-GABA-A α5β3γ2 oocyte of 1.55

response.value for Cc1ccc(-n2nnc(C)c2Cn2ncc(N3C[C@@H](C)O[C@@H](C)C3)cc2=O)cn1 (field: Fold increase h-GABA-A α5β3γ2 oocyte) = 2.9

Lab note: measured Fold increase h-GABA-A α5β3γ2 oocyte of Cn1nnc(-c2ccc(Cl)cc2F)c1Cn1ncc(N2CCOCC2)cc1=O was 1.81

Fold increase h-GABA-A α5β3γ2 oocyte recorded for this compound, Cc1nnn(-c2ccc(Cl)cc2F)c1Cn1ncc(N2CCOCC2)cc1=O , is 1.97

The measured Fold increase h-GABA-A α5β3γ2 oocyte associated with Cn1nnc(-c2ccc(Cl)cc2F)c1Cn1ncc(-c2cnn(CC(F)F)c2)cc1=O reads 1.72

* * *

target: h-GABA-A α5β3γ2 (Homo sapiens, UniProt P18507+P31644); construct: expressed in transfected cells; host or cells: Xenopus laevis oocytes, micro-injected with subunit RNA; assay: Two-electrode voltage clamp electrophysiology in Xenopus oocytes expressing GABAA receptors (modulation of GABA EC20 current); type: cell-based; settings: Table 1; Xenopus oocytes, GABA EC20, test compound at approximatively 30 fold its Ki
Consider the following molecules; for each one, report its Fold increase h-GABA-A α5β3γ2 oocyte.
The reply should be a number, written without any unit.

Reported Fold increase h-GABA-A α5β3γ2 oocyte of Cc1nnn(-c2ccc(Cl)cc2)c1Cn1ncc(N2C[C@@H](C)O[C@@H](C)C2)cc1=O : 2.08

For Cn1nnc(-c2ncc(C(F)(F)F)cn2)c1Cn1ncc(N2CC(OC3CCC3)C2)cc1=O the molecule record lists Fold increase h-GABA-A α5β3γ2 oocyte as 1.87

# Fold increase h-GABA-A α5β3γ2 oocyte (molecule: CO[C@H]1COC2(C1)CN(c1cnn(Cc3c(-c4ccc(Cl)cc4F)nnn3C)c(=O)c1)C2 ) is 1.61

Fold increase h-GABA-A α5β3γ2 oocyte in this record for COc1ccc(-c2cnn(Cc3c(-c4ccc(Cl)cc4F)nnn3C)c(=O)c2)cc1 : 1.52

For reference, reported Fold increase h-GABA-A α5β3γ2 oocyte for CC(C)N1CCN(c2cnn(Cc3c(-c4ccc(Cl)cc4F)nnn3C)c(=O)c2)C[C@@H]1C stands at 1.82

For this molecule ( Cn1nnc(-c2ccc(C(F)(F)F)cc2F)c1Cn1ncc(N2CC(OCC(F)(F)F)C2)cc1=O ), measured Fold increase h-GABA-A α5β3γ2 oocyte is 1.86

So for C[C@@H]1CN(c2cnn(Cc3c(-c4ccc(Cl)cc4)nnn3C)c(=O)c2)C[C@H](C)O1 , the logged Fold increase h-GABA-A α5β3γ2 oocyte turned out to be 2.1

Fold increase h-GABA-A α5β3γ2 oocyte recorded for this molecule, CCn1nnc(-c2ccc(Cl)cc2F)c1Cn1ncc(N2CC(Oc3ccc(Cl)nc3)C2)cc1=O , is 2.26

Fold increase h-GABA-A α5β3γ2 oocyte measured on COC[C@@H]1CCCN1c1cnn(Cc2c(-c3ccc(C)nc3)nnn2C)c(=O)c1 = 2.37

Query CCOC1CN(c2cnn(Cc3c(-c4ccc(Cl)cc4)nnn3C)c(=O)c2)C1 yields Fold increase h-GABA-A α5β3γ2 oocyte of 1.47

The molecule COc1ncc(-c2cnn(Cc3c(-c4ccc(Cl)cc4F)nnn3C)c(=O)c2)cc1Cl showed Fold increase h-GABA-A α5β3γ2 oocyte equal to 2.25

What the record says about CCn1nnc(-c2ccc(Cl)cc2F)c1Cn1ncc(N2CC(OC3CCC3)C2)cc1=O : Fold increase h-GABA-A α5β3γ2 oocyte is 2.43

Entry under test: Cc1nnn(-c2ccc(Cl)cc2F)c1Cn1ncc(N2Cc3ccccc3C2)cc1=O . Its Fold increase h-GABA-A α5β3γ2 oocyte was 1.6

Entry Cn1nnc(-c2ccc(C(F)(F)F)cc2F)c1Cn1ncc(N2CC(Oc3ccc(Cl)nc3)C2)cc1=O , Fold increase h-GABA-A α5β3γ2 oocyte reported as 1.79

Data point: Cc1ccc(-c2nnn(C)c2Cn2ncc(N3C[C@H](C)O[C@@H](C)C3)cc2=O)cn1 (racemic) ; Fold increase h-GABA-A α5β3γ2 oocyte = 2.91

Quick note, Fold increase h-GABA-A α5β3γ2 oocyte for CCn1nnc(-c2ccc(Cl)cc2F)c1Cn1ncc(N2CC(OC(C)C)C2)cc1=O landed at 1.96

Recorded result, Cn1nnc(-c2ccc(Cl)cc2F)c1Cn1ncc(N2CC(OC(F)F)C2)cc1=O , Fold increase h-GABA-A α5β3γ2 oocyte: 1.69

Given item Cc1ccc(-c2nnn(C)c2Cn2ncc(N3CCCC3)cc2=O)cn1 , the value recorded as its Fold increase h-GABA-A α5β3γ2 oocyte is 2.3

Entry CCOC1CN(c2cnn(Cc3c(-c4ncc(C(F)(F)F)cn4)nnn3C)c(=O)c2)C1 ; Fold increase h-GABA-A α5β3γ2 oocyte = 1.74

Fold increase h-GABA-A α5β3γ2 oocyte recorded for this molecule, Cn1nnc(-c2ccc(Cl)cc2F)c1Cn1ncc(N2CC(OCC3CC3)C2)cc1=O , is 2.15

Per the record, Cn1nnc(-c2ccc(Cl)cc2F)c1Cn1ncc(N2CCN(C(=O)C3CC3)CC2)cc1=O has Fold increase h-GABA-A α5β3γ2 oocyte of 2.4

Note to self: Fold increase h-GABA-A α5β3γ2 oocyte recorded for COc1ncc(-c2cnn(Cc3c(C)nnn3-c3ccc(Cl)cc3F)c(=O)c2)cc1Cl was 2.3

Briefly, Fold increase h-GABA-A α5β3γ2 oocyte measured for CCOC1CN(c2cnn(Cc3c(C)nnn3-c3ccc(Cl)cc3F)c(=O)c2)C1 : 1.75

Value of Fold increase h-GABA-A α5β3γ2 oocyte reported for the molecule Cn1nnc(-c2ccc(C(F)(F)F)cc2F)c1Cn1ncc(N2CC(Oc3cccnn3)C2)cc1=O is 2.08

Data point: Cc1ccc(-c2nnn(C)c2Cn2ncc(N3CCOC(C)(C)C3)cc2=O)cn1 ; Fold increase h-GABA-A α5β3γ2 oocyte = 1.48

Field Fold increase h-GABA-A α5β3γ2 oocyte (entry CCn1nnc(-c2ccc(Cl)cc2F)c1Cn1ncc(N2CC(OCC(F)(F)F)C2)cc1=O ) reads 2.15

// Fold increase h-GABA-A α5β3γ2 oocyte lookup, molecule = CO[C@@H]1COC2(C1)CN(c1cnn(Cc3c(-c4ccc(Cl)cc4F)nnn3C)c(=O)c1)C2 , result: 1.98

* * *

Provide the reported Efficacy (GABA) % of each item.
target: h-GABA-A α5β3γ2 (Homo sapiens, UniProt P18507+P31644); construct: expressed in transfected cells; host or cells: Xenopus laevis oocytes, micro-injected with subunit RNA; test: Two-electrode voltage clamp electrophysiology in Xenopus oocytes expressing GABAA receptors (modulation of GABA EC20 current); assay type: cell-based; settings: Table 1; % modulation of GABA EC20 = 100*(Fold increase-1)
Form entry: value (%) — number only.

# Efficacy (GABA) % measured on h-GABA-A α5β3γ2 (Homo sapiens, UniProt P18507+P31644) for item C[C@@H]1CN(c2cnn(Cc3c(-c4ccc(Cl)cc4F)nnn3C)c(=O)c2)C[C@H](C)O1 = 124

# value of Efficacy (GABA) %, h-GABA-A α5β3γ2 (Homo sapiens, UniProt P18507+P31644), item COc1ncc(-c2cnn(Cc3c(-c4ncc(C(F)(F)F)cn4)nnn3C)c(=O)c2)cc1Cl = 135

Fill in: h-GABA-A α5β3γ2 (Homo sapiens, UniProt P18507+P31644) Efficacy (GABA) % for Cc1ccc(-c2nnn(C)c2Cn2ncc(N3CCC[C@H]3C)cc2=O)cn1 = 79

Record for Cn1nnc(-c2ncc(C(F)(F)F)cn2)c1Cn1ncc(N2CC(OCC(F)(F)F)C2)cc1=O under target or system h-GABA-A α5β3γ2 (Homo sapiens, UniProt P18507+P31644): Efficacy (GABA) % reported as 78

The value of Efficacy (GABA) % recorded for Cn1nnc(-c2ncc(C(F)(F)F)cn2)c1Cn1ncc(N2CC(OCC(F)F)C2)cc1=O when tested on h-GABA-A α5β3γ2 (Homo sapiens, UniProt P18507+P31644) reads 86

h-GABA-A α5β3γ2 (Homo sapiens, UniProt P18507+P31644) assay, compound CCn1nnc(-c2ccc(Cl)cc2F)c1Cn1ncc(N2CC3(CC[C@@H](F)CO3)C2)cc1=O , recorded Efficacy (GABA) % = 69

Given the compound CCOC1CN(c2cnn(Cc3c(C)nnn3-c3ccc(Cl)cc3F)c(=O)c2)C1 and test system h-GABA-A α5β3γ2 (Homo sapiens, UniProt P18507+P31644), the measured Efficacy (GABA) % is 75

Cn1nnc(-c2ccc(Cl)cc2F)c1Cn1ncc(N2CC(Oc3ccnc(C(F)(F)F)n3)C2)cc1=O tested on h-GABA-A α5β3γ2 (Homo sapiens, UniProt P18507+P31644) gave Efficacy (GABA) %: 79

GET /values?item= CCn1nnc(-c2ccc(Cl)cc2F)c1Cn1ncc(N2CC(OC(F)F)C2)cc1=O &system= h-GABA-A α5β3γ2 (Homo sapiens, UniProt P18507+P31644) returns Efficacy (GABA) %: 126

# Efficacy (GABA) % measured on h-GABA-A α5β3γ2 (Homo sapiens, UniProt P18507+P31644) for item Cc1nnn(-c2ccc(Cl)cc2F)c1Cn1ncc(N(C)C)cc1=O = 58

Form: item Cc1nnn(-c2ccc(Cl)cc2F)c1Cn1ncc(-c2ccnc(C(F)(F)F)c2)cc1=O ; test system h-GABA-A α5β3γ2 (Homo sapiens, UniProt P18507+P31644); Efficacy (GABA) %: 64

Record for COc1cc(-c2cnn(Cc3c(-c4ccc(Cl)cc4F)nnn3C)c(=O)c2)ccn1 under target or system h-GABA-A α5β3γ2 (Homo sapiens, UniProt P18507+P31644): Efficacy (GABA) % reported as 42

Noted Efficacy (GABA) % for Cn1nnc(-c2ccc(C(F)(F)F)cc2F)c1Cn1ncc(N2CC(OCC(F)(F)F)C2)cc1=O , tested on h-GABA-A α5β3γ2 (Homo sapiens, UniProt P18507+P31644): 86

Log: h-GABA-A α5β3γ2 (Homo sapiens, UniProt P18507+P31644), compound C[C@@H]1CN(c2cnn(Cc3c(-c4ccc(F)cc4F)nnn3C)c(=O)c2)C[C@H](C)O1 , Efficacy (GABA) % = 138

Efficacy (GABA) % of Cc1nnn(-c2ccc(Cl)cc2F)c1Cn1ncc(N2CCO[C@@H](C)C2)cc1=O , assay on h-GABA-A α5β3γ2 (Homo sapiens, UniProt P18507+P31644), is 130

CCc1nccn1C1CCN(c2cnn(Cc3c(C)nnn3-c3ccc(Cl)cc3F)c(=O)c2)CC1 on h-GABA-A α5β3γ2 (Homo sapiens, UniProt P18507+P31644) gives Efficacy (GABA) % = 130

Tested on h-GABA-A α5β3γ2 (Homo sapiens, UniProt P18507+P31644): C[C@@H]1CN(c2cnn(Cc3c(-c4ccc(Cl)cc4)nnn3C)c(=O)c2)C[C@H](C)O1 . Observed Efficacy (GABA) %: 110

h-GABA-A α5β3γ2 (Homo sapiens, UniProt P18507+P31644) Efficacy (GABA) % of COc1ncc(-c2cnn(Cc3c(-c4ccc(C)nc4)nnn3C)c(=O)c2)cc1Cl is 236

Lab note: compound Cc1ccc(-c2nnn(C)c2Cn2ncc(N3C[C@H](C)O[C@@H](C)C3)cc2=O)cn1 (racemic) tested on h-GABA-A α5β3γ2 (Homo sapiens, UniProt P18507+P31644); recorded Efficacy (GABA) % was 191

Entry Cc1nnn(-c2ccc(Cl)cc2F)c1Cn1ncc(N2CCOCC2)cc1=O , h-GABA-A α5β3γ2 (Homo sapiens, UniProt P18507+P31644) data, Efficacy (GABA) % value: 97
